Data credit: patent US20250092056A1

Parameter pEC50: see the listing below.
- Tested on: SARS-CoV-2
- assaySummary: Cytopathic effect (CPE) suppression effect confirmation test using HEK293T/ACE2-TMPRSS2 cells
- Assay type: cell-based
- testConditions: Severe acute respiratory syndrome coronavirus 2, HEK-293T, 72 h; HEK293T/ACE2-TMPRSS2 cells, CPE suppression, CellTiter-Glo 2.0 after 3 days culture; read-out: EC50 (50% SARS-CoV-2 infected cell death inhibitory concentration), class
pEC50: −log10 of the molar value.
measurementLabel: pEC50

> print(dat)
                                    molecule  measurementlabel  endpointresult
 1  Cc1cc(-n2c(=O)c(-c3cc(F)c(F)c(Cl)c3)c(N3CCC(C(F)(F)F)CC3)n(CC#N)c2=O)cc(=O)[nH]1             pEC50          > 7.00
 2  N#CCn1c(-c2cc3ccccc3s2)c(Sc2cc(F)c(F)c(F)c2)c(=O)n(-c2cncc(Cl)c2)c1=O             pEC50          > 7.00
 3  Cc1cncc(-n2c(=O)c(Cc3cc(F)c(F)c(F)c3)c(N3CCC(C#N)C3)n(CC#N)c2=O)c1 (racemic)             pEC50          > 7.00
 4  CC1(O)CC2(CN(c3c(-c4ccc(F)c(Cl)c4)c(=O)n(-c4cnc5cc(F)ccn45)c(=O)n3CC#N)C2)C1             pEC50    6.00 to 7.00
 5  N#CCn1c(N2CC(C(F)(F)F)C2)c(-c2ccc(F)c(Cl)c2)c(=O)n(-c2cnc3cc(Cl)ccn23)c1=O             pEC50          > 7.00
 6  N#CCn1c(N2CCC(O)(C(F)(F)F)CC2)c(-c2ccc(F)c(Cl)c2)c(=O)n(-c2cnc3cc(Cl)ccn23)c1=O             pEC50          > 7.00
 7  CC(C)(O)C1CN(c2c(-c3ccc(F)c(Cl)c3)c(=O)n(-c3cnc4cc(Cl)ccn34)c(=O)n2CC#N)C1             pEC50          > 7.00
 8  Cc1cc(-n2c(=O)c(Cc3cc(F)c(F)c(F)c3)c(N3Cc4ccccc4C3)n(CC#N)c2=O)cc(=O)[nH]1             pEC50    6.00 to 7.00
 9  Cc1cncc(-n2c(=O)c(Cc3cc(F)c(F)c(F)c3)c(CCCO)n(CC#N)c2=O)c1             pEC50          > 7.00
10  N#CCn1c(N2CCC3(CNC(=O)C3)C2)c(-c2ccc(F)c(Cl)c2)c(=O)n(-c2cnc3cc(Cl)ccn23)c1=O (racemic)             pEC50    5.30 to 6.00
11  N#CCn1c(N2CC(O)(C(F)(F)F)C2)c(-c2ccc(F)c(Cl)c2)c(=O)n(-c2cnc3cc(Cl)ccn23)c1=O             pEC50          > 7.00
12  N#CCn1c(N2CC3(CCOC3)C2)c(Cc2cc(F)c(F)c(F)c2)c(=O)n(-c2cnc3ccc(F)cn23)c1=O             pEC50    6.00 to 7.00
13  CC(C)(C)OC(=O)C(C#N)n1c(N2CCC(C(F)(F)F)CC2)c(-c2ccc(F)c(Cl)c2)c(=O)n(-c2cncc(Cl)c2)c1=O (racemic)             pEC50          > 7.00
14  N#CCn1c(N2CC3(CCOC3)C2)c(Cc2cc(F)c(F)c(F)c2)c(=O)n(-c2cnc3cc(F)ccn23)c1=O             pEC50    6.00 to 7.00
15  Cc1cncc(-n2c(=O)c(Cc3cc(F)c(F)c(F)c3)c(N3CC(F)C3)n(CC#N)c2=O)c1             pEC50          > 7.00
16  Cc1cncc(-n2c(=O)c(Cc3cc(F)c(F)c(F)c3)c(N3CCC4(CCC(=O)N4)C3)n(CC#N)c2=O)c1 (racemic)             pEC50    6.00 to 7.00
17  Cc1cc(-n2c(=O)c(-c3cc(Cl)cc(C(F)(F)F)c3)c(N3CCC(C(F)(F)F)CC3)n(CC#N)c2=O)cc(=O)[nH]1             pEC50          > 7.00
18  N#CCn1c(Cl)c(-c2ccc(F)c(Cl)c2)c(=O)n(-c2cncc(Cl)c2)c1=O             pEC50    6.00 to 7.00
19  Cc1cncc(-n2c(=O)c(Cc3cc(F)c(F)c(F)c3)c(N3CCC4(C3)NC(=O)NC4=O)n(CC#N)c2=O)c1 (racemic)             pEC50    5.30 to 6.00
20  Cc1cncc(-n2c(=O)c(-c3ccc(F)c(Cl)c3)c(N3CCC(C(F)F)CC3)n(CC#N)c2=O)n1             pEC50          > 7.00
21  Cc1cncc(-n2c(=O)c(Cc3cc(F)c(F)c(F)c3)c(N3CC4(CCOCC4)C3)n(CC#N)c2=O)c1             pEC50          > 7.00
22  Cc1cc(-n2c(=O)c(-c3ccc(F)c(Cl)c3)c(N3CC4(CCOC4)C3)n(CC#N)c2=O)cnn1             pEC50    6.00 to 7.00
23  Cc1cncc(-n2c(=O)c(Cc3cc(F)c(F)c(F)c3)c(N3C[C@@H]4[C@H](C3)C4(F)F)n(CC#N)c2=O)c1             pEC50          > 7.00
24  Cc1cncc(-n2c(=O)c(C(=O)c3cc(F)c(F)c(F)c3)c(-c3cc4ccccc4s3)n(CC#N)c2=O)c1             pEC50          > 7.00
25  Cc1cncc(-n2c(=O)c(Cc3cc(F)c(F)c(F)c3)c(-c3ccc(C)c(C)c3)n(C(C#N)C(=O)O)c2=O)c1 (racemic)             pEC50          > 7.00
26  CC1(O)CC2(CN(c3c(-c4ccc(F)c(Cl)c4)c(=O)n(-c4cnc5cc(Cl)ccn45)c(=O)n3CC#N)C2)C1             pEC50    6.00 to 7.00

----------
IC50 for assorted compounds
- target: Recombinant SARS-CoV-2 3CL Protease (Severe acute respiratory syndrome coronavirus 2 (2019-nCoV) (SARS-CoV-2))
- assaySummary: biochemical
- Format: biochemical
- testConditions: 50% SARS-CoV-2 3CL protease inhibitory concentration; read-out: IC50

compound	IC50
CC(C)(O)CCc1c(-c2ccc(F)c(Cl)c2)c(=O)n(-c2cncc(C#N)c2)c(=O)n1CC#N [Compound I-414]	< 10 nM
CC1(C)CN(c2c(-c3ccc(F)c(Cl)c3)c(=O)n(-c3cnc4cc(F)ccn34)c(=O)n2CC#N)C1 [Compound I-154]	< 10 nM
CC(C)(O)C1(F)CN(c2c(-c3ccc(F)c(Cl)c3)c(=O)n(-c3cncc(Cl)c3)c(=O)n2CC#N)C1 [Compound I-289]	< 10 nM
Cc1cncc(-n2c(=O)c(-c3ccc(F)c(Cl)c3)c(N3CC4(C3)CC(F)(F)C4)n(CC#N)c2=O)n1 [Compound I-198]	< 10 nM
N#CCn1c(N2CC(F)(C3CC3)C2)c(-c2ccc(F)c(Cl)c2)c(=O)n(-c2cncc(Cl)c2)c1=O [Compound I-076]	< 10 nM
Cc1cncc(-n2c(=O)c(-c3ccc(F)c(Cl)c3)c(-c3nc4ccccc4o3)n(CC#N)c2=O)c1 [Compound I-132]	< 10 nM
CC(C)N1CCN(c2c(-c3ccc(F)c(Cl)c3)c(=O)n(-c3cncc(Cl)c3)c(=O)n2CC#N)CC1=O [Compound I-223]	< 10 nM
N#CCn1c(N2CC3(C2)CC(F)(F)C3)c(-c2ccc(F)c(Cl)c2)c(=O)n(-c2cc(C#N)cnn2)c1=O [Compound I-216]	< 10 nM
N#CCn1c(N2CC(OC(F)F)C2)c(-c2ccc(F)c(C(F)F)c2)c(=O)n(-c2cncc(C#N)c2)c1=O [Compound I-415]	< 10 nM
N#CCn1c(N2CC3(CCOC3)C2)c(Cc2cc(F)c(F)c(F)c2)c(=O)n(-c2cnc3ccccn23)c1=O [Compound I-037]	10 to 100 nM
Cc1cc(-n2c(=O)c(-c3ccc(F)c(Cl)c3)c(Cl)n(CC#N)c2=O)c[n+]([O-])c1 [Compound I-277]	> 100 nM
Cc1cncc(-n2c(=O)c(-c3ccc(F)c(Cl)c3)c(N(C)Cc3ccccc3)n(CC#N)c2=O)c1 [Compound I-025]	< 10 nM
C[C@@H](C#N)n1c(N2CC[C@](O)(C(F)F)C2)c(-c2ccc(F)c(F)c2)c(=O)n(-c2cncc(Cl)c2)c1=O (single isomer, unassigned) [Compound I-434]	< 10 nM
Cc1cc(-n2c(=O)c(-c3ccc(F)c(Cl)c3)c(N3CC4(C3)CC(F)(F)C4)n(CC#N)c2=O)[nH]c(=O)c1 [Compound I-221]	> 100 nM
N#CCn1c(N2CC(C(F)(F)F)C2)c(-c2ccc(F)c(F)c2)c(=O)n(-c2cncc(Cl)c2)c1=O [Compound I-316]	< 10 nM
N#CCn1c(N2CC3(C2)CC(F)(F)C3)c(-c2ccc(F)c(Cl)c2)c(=O)n(-c2cc(OCC(F)F)cnn2)c1=O [Compound I-217]	< 10 nM
C[C@@H](C#N)n1c(N2CC[C@@](O)(C(F)F)C2)c(-c2ccc(F)c(C(F)F)c2)c(=O)n(-c2cncc(Cl)c2)c1=O (single isomer, unassigned) [Compound I-428]	< 10 nM
Cc1cncc(-n2c(=O)c(Cc3cc(F)c(F)c(F)c3)c(-c3ccc(C)c(C)c3)n(C(C)C#N)c2=O)c1 (racemic) [Compound I-057]	9.8 nM
Cc1cncc(-n2c(=O)c(Cc3cc(F)c(F)c(F)c3)c(N3CCC(O)(C(F)(F)F)CC3)n(CC#N)c2=O)c1 [Compound I-116]	< 10 nM
N#CCn1c(N2CC3(CC3)C2)c(-c2ccc(F)c(Cl)c2)c(=O)n(-c2cnc3cc(Cl)ccn23)c1=O [Compound I-134]	< 10 nM
N#CCn1c(N2CCC(C(F)(F)F)CC2)c(-c2ccc(F)c(C#N)c2)c(=O)n(-c2cncc(Cl)c2)c1=O [Compound I-402]	< 10 nM
N#CCn1c(N2CC3(CCOC3)C2)c(Cc2cc(F)c(F)c(F)c2)c(=O)n(-c2cncnc2)c1=O [Compound I-007]	> 100 nM
N#CCn1c(N2CCC(C(F)(F)F)CC2)c(-c2ccc(F)c(Cl)c2)c(=O)n(-c2cnc3cc(F)ccn23)c1=O [Compound I-153]	< 10 nM
N#CCn1c(N2CC3(C2)CC(F)(F)C3)c(-c2ccc(F)c(C#N)c2)c(=O)n(-c2cncc(Cl)c2)c1=O [Compound I-372]	< 10 nM
Cc1cncc(-n2c(=O)c(-c3ccc(F)c(Cl)c3)c(N3CC4(CCCO4)C3)n(CC#N)c2=O)n1 [Compound I-195]	< 10 nM
CC1(C)[C@@H]2CN(c3c(-c4cccc(Cl)c4)c(=O)n(-c4cncc(Cl)c4)c(=O)n3CC#N)C[C@@H]21 [Compound I-178]	< 10 nM
